Tested on: human myeloid leukaemia HL-60 cells
Assay: Toxicity assay (resazurin, 72 h) on HL-60 cells
Format: cell-based
Conditions: HL-60 cells; 72 h; determined microscopically; mean of three experiments
Provide the reported MIC of each item.
The answer consists of two parts: a number and, after it, its unit.

Reference set, count: 5
CCCCOC(=O)C(CC)C1CCC(C)C(C(C)C(O)C(C)C(=O)C(CC)C2OC3(C=CC(O)C4(CCC(C)(C5CCC(O)(CC)C(C)O5)O4)O3)C(C)CC2C)O1 (stereo not drawn) | 100 µM
CCC(C(=O)NCc1ccccc1)C1CCC(C)C(C(C)C(O)C(C)C(=O)C(CC)C2OC3(C=CC(O)C4(CCC(C)(C5CCC(O)(CC)C(C)O5)O4)O3)C(C)CC2C)O1 (stereo not drawn) | 100 µM
C=CCNC(=O)OCC1(O)OC(C2CC(C)C(C3(CC)CCC(C4(C)CCC5(CC(O)C(C)C(C(C)C(OC)C(C)C(=O)O)O5)O4)O3)O2)C(C)CC1C (stereo not drawn) | 100 µM
CCC(C(=O)NCCc1c[nH]c2ccccc12)C1CCC(C)C(C(C)C(O)C(C)C(=O)C(CC)C2OC3(C=CC(O)C4(CCC(C)(C5CCC(O)(CC)C(C)O5)O4)O3)C(C)CC2C)O1 (stereo not drawn) | 100 µM
CCC1(C2OC(C3OC(O)(CO)C(C)CC3C)CC2C)CCC(C2(C)CCC3(CC(O)C(C)C(C(C)C(OC)C(C)C(=O)OCCOCCOC)O3)O2)O1 (stereo not drawn) | 100 µM

Now for another entry.
Query: # get_value(readout='MIC', item= CCC1(C2OC(C3OC(O)(CO)C(C)CC3C)CC2C)CCC(C2(C)CCC3(CC(O)C(C)C(C(C)C(OC)C(C)C(=O)OC)O3)O2)O1 (stereo not drawn) [MON-E1] )
Response: 100 µM
